Below are Ki values measured for neurotensin receptor (Mus musculus).
Kindly provide the numeric value in µM only, without the unit symbol.

Please give the measured Ki for this compound: O=C(O)c1cccc(C(CCc2ccc(F)cc2)CC(=O)c2ccc(F)cc2)c1 (stereo not drawn) [Example 22]
3.24

Please give the measured Ki for this compound: O=C(CC(CC(=O)c1ccc(Cl)cc1)c1cccc(-c2nnn[nH]2)c1)c1ccc(Cl)cc1 [Example 18]
5.9

Please give the measured Ki for this compound: Cc1ccc(C(=O)CC(CC(=O)c2ccc(F)cc2)c2cccc(C(=O)O)c2)cc1 (stereo not drawn) [Example 15]
0.448

Please give the measured Ki for this compound: O=C(O)c1cccc(C(CCc2ccccc2)CC(=O)c2ccc(Cl)cc2)c1 (stereo not drawn) [Example 23]
10.4

Please give the measured Ki for this compound: O=C(O)c1cccc(C(CCc2ccc(F)cc2)CC(=O)c2ccccc2)c1 (stereo not drawn) [Example 21]
29.5

Please give the measured Ki for this compound: O=C(O)c1cccc(C(CCc2ccc(Cl)cc2)CC(=O)c2ccc(Cl)cc2)c1 (stereo not drawn) [Example 20]
6.74
